- System: H929 cells
- Experiment: Cell viability assay (H929 10 FBS)
- Assay type: cell-based
- Condition Set: Homo sapiens, NCI-H929, 24 hours, read-out: H929_10FBS IC50
Each entry below carries its recorded IC50.

{"columns": ["Compound", "Test System", "IC50"],
 "data": [
  ["COC[C@@H]1CC/C=C/[C@@H](OC)[C@@H]2CC[C@H]2CN2C[C@@]3(CCCc4cc(Cl)ccc43)COc3ccc(cc32)S(=O)(=O)NC1=O", "H929 cells", "> 1000 nM"],
  ["CN(C)C[C@@H]1CCCN1C(=O)O[C@H]1/C=C/COC(C)(C)C(=O)NS(=O)(=O)c2ccc3c(c2)N(C[C@@H]2CC[C@H]21)C[C@@]1(CCCc2cc(Cl)ccc21)CO3", "H929 cells", "< 500 nM"],
  ["CO[C@H]1/C=C/CNCC2(CCC2)C(=O)NS(=O)(=O)c2ccc3c(c2)N(C[C@H]2CCC21)CC1(CCCc2cc(Cl)ccc21)CO3 (stereo partly drawn)", "H929 cells", "> 1000 nM"]
]}

---

Items are presented alongside their recorded IC50.
- Test system: H929 cells
- Experiment: Cell viability assay (H929 10 FBS)
- Format: cell-based
- Condition Set: Homo sapiens, NCI-H929, 24 hours, read-out: H929_10FBS IC50

{"columns": ["Molecule", "IC50"],
 "data": [
  ["CN(C(=O)O[C@H]1/C=C/CN(C)C(C)(C)C(=O)NS(=O)(=O)c2ccc3c(c2)N(C[C@@H]2CC[C@H]21)C[C@@]1(CCCc2cc(Cl)ccc21)CO3)[C@H]1CCOC1 [Example 226]", "< 500 nM"],
  ["CO[C@H]1/C=C/C[C@@H](C)CC(=O)NS(=O)(=O)c2ccc3c(c2)N(C[C@@H]2CC[C@H]21)C[C@@]1(CCCc2cc(Cl)ccc21)CO3 [Example 84]", "> 1000 nM"],
  ["C[C@@H]1NC(=O)COC[C@@H]2CC[C@H]2CN2C[C@@]3(CCCc4cc(Cl)ccc43)COc3ccc(cc32)S(=O)(=O)NC1=O [Example 197]", "> 1000 nM"],
  ["CCOC(=O)N(C)[C@@H]1/C=C/CN(C)C(C)(C)C(=O)NS(=O)(=O)c2ccc3c(c2)N(C[C@@H]2CC[C@H]21)C[C@@]1(CCCc2cc(Cl)ccc21)CO3 [Example 253]", "> 1000 nM"],
  ["C[C@H]1NC/C=C/[C@H](OC(=O)N(C)C)[C@@H]2CC[C@H]2CN2C[C@@]3(CCCc4cc(Cl)ccc43)COc3ccc(cc32)S(=O)(=O)NC1=O [Example 146]", "< 500 nM"],
  ["CN(C)C(=O)O[C@H]1/C=C\\COC(C)(C)C(=O)NS(=O)(=O)c2ccc3c(c2)N(C[C@@H]2CC[C@H]21)C[C@@]1(CCCc2cc(Cl)ccc21)CO3 [Example 35]", "> 1000 nM"],
  ["CC(=O)NS(=O)(=O)c1ccc2c(c1)N(CC1CCC1)C[C@@]1(CCCc3cc(Cl)ccc31)CO2 [Example 12]", "> 1000 nM"],
  ["CN1C/C=C/[C@H](OC(=O)NC2CCC2)[C@@H]2CC[C@H]2CN2C[C@@]3(CCCc4cc(Cl)ccc43)COc3ccc(cc32)S(=O)(=O)NC(=O)C1(C)C [Example 201]", "< 500 nM"],
  ["CN(C)C(=O)O[C@H]1/C=C/COC2(CC2)C(=O)NS(=O)(=O)c2ccc3c(c2)N(C[C@@H]2CC[C@H]21)C[C@@]1(CCCc2cc(Cl)ccc21)CO3 [Example 41]", "< 500 nM"],
  ["CO[C@H]1CCCCC(=O)NS(=O)(=O)c2ccc3c(c2)N(C[C@@H]2CC[C@H]21)C[C@@]1(CCCc2cc(Cl)ccc21)CO3 [Example 77]", "> 1000 nM"],
  ["CCN1C/C=C/[C@H](OC(=O)N2CCOCC2)[C@@H]2CC[C@H]2CN2C[C@@]3(CCCc4cc(Cl)ccc43)COc3ccc(cc32)S(=O)(=O)NC(=O)C1(C)C [Example 221]", "< 500 nM"]
]}
